The following compounds are listed with their measured MBC values.
- Tested on: Escherichia coli
- MEASUREMENT NOTES: Antimicrobial activity against Escherichia coli CIP 53126 after 18 to 24 hrs by broth microdilution method
- Assay type: functional

Sample records with MBC:
SMILES ENTRY | MEASUREMENT LABEL | REPORTED VALUE
C[C@H]1COc2c(N3CCN(C)CC3)c(F)cc3c(=O)c(C(=O)NCCCCCCCCCCCCNC(=O)c4cn5c6c(c(N7CCN(C)CC7)c(F)cc6c4=O)OC[C@@H]5C)cn1c23 | MBC | ≤ 0.97 µM
C[C@H]1COc2c(N3CCN(C)CC3)c(F)cc3c(=O)c(C(=O)NCCCCCCCCCCNC(=O)c4cn5c6c(c(N7CCN(C)CC7)c(F)cc6c4=O)OC[C@@H]5C)cn1c23 | MBC | ≤ 0.97 µM

Attention now turns to another entry.
Problem: // query MBC value for entry O=C(O)c1cn(C2CC2)c2cc(N3CCN(C(=O)CCl)CC3)c(F)cc2c1=O
Result: ≤ 0.97 µM
